Taken from patent US20260306492A1.

Test: Milvexian plasma pharmacokinetics, AXIOMATIC-TKR Phase II
Details: human, in vivo, po, 200 mg
measuredMetric: Tmax

Can you look up the measured Tmax of `C[C@@H]1CCC[C@H](n2cnc(-c3cc(Cl)ccc3-n3cc(Cl)nn3)cc2=O)c2cc(ccn2)-c2c(cnn2C(F)F)NC1=O` for me?
~4 h
